Where do these numbers come from? They come from patent US5998435A.

- test.protocol: Brain penetration in the rat using HPLC assay
- Assay type: in vivo
- condition.set: brain, IV 4.5 mg/kg, read-out: time of highest brain concentration (converted)
reported.property: Tmax (min)
The answer is to be given in min; state only the numeric part.

Query (molecule): C[C@H](NC(=O)[C@@](C)(Cc1c[nH]c2ccccc12)NC(=O)OCc1cc2ccccc2o1)c1ccccc1 [The Compound] ; field requested: Tmax
15
